pKi: −log10 of the molar value.
Here we gather pKi data for UniProt P00734 reported by several publications.
Classification field: enter met for pKi values not below 7, not met for values below it.

>>> classification("CNC[C@H](Cc1ccccc1)Nc1ccncc1S(=O)(=O)N[C@@H](Cc1ccc(N)cc1)C(=O)N1CCC(CCF)CC1")
"met"
>>> classification("CC(=N)N1CCC(Oc2ccc(NC/C=C/c3cc(C(=N)N)ccc3O)cc2C(F)(F)F)CC1")
"not met"
>>> classification("Nc1ccc(CNC(=O)[C@@H]2CCCN2C(=O)[C@H](N)C(C2CCCCC2)C2CCCCC2)cn1")
"met"
>>> classification("N=C(N)c1cccc(Oc2ccc(C(N)=O)c(Oc3cccc(C(=N)N)c3)n2)c1")
"not met"
>>> classification("CCC1(CC)C[C@@H](C(=O)NCc2ccc(C(=N)N)cc2)n2c1c(Cl)nc(NC1CCC1)c2=O")
"not met"
>>> classification("N=C(N)Nc1ccc(CNC(=O)N2CCN(C(=O)O[C@H]3CCC[C@@H](OC(=O)N4CCN(C(=O)NCc5ccccc5)CC4)CCC3)CC2)cc1")
"not met"
>>> classification("COc1ccc(-n2nc(C(F)(F)F)c3c2C(=O)N(c2ccc(N)cc2)CC3)cc1")
"not met"
>>> classification("CN1CC(C)(COc2ccc(C(=N)N)cc2)Oc2cc(N(CC(=O)O)Cc3ccc(F)cc3)ccc21 (centres undefined)")
"not met"

Request: hey, is pKi for this one >= 7? COc1ccc2cc(S(=O)(=O)NC(Cc3ccc(CN)cc3)C(=O)N(C)C3CCCC3)ccc2c1 (centres undefined)
Response: met

Request: hey, is pKi for this one >= 7? Cc1cc2ccc1[C@@H](C)COC(=O)Nc1cccc(c1)CNC(=O)[C@H]2Nc1ccc2c(N)nccc2c1
Response: not met

Request: hey, is pKi for this one >= 7? N=C(N)c1ccc(NC(=O)C2CC(c3cccc(C(=N)N)c3)=NO2)cc1 (centres undefined)
Response: not met

Request: hey, is pKi for this one >= 7? COc1ccc(C2(CNc3ncc(C)n(CC(=O)NCc4ccc5[nH]nc(N)c5c4)c3=O)CC2)cc1
Response: met

Request: hey, is pKi for this one >= 7? N[C@@H](C(=O)N1CCC[C@H]1C(=O)NCCc1c[nH]cn1)C(c1ccccc1)c1ccccc1
Response: not met

Request: hey, is pKi for this one >= 7? N=C(N)c1cccc(N2CCCN(C3CCN(Cc4ccccc4)CC3)C2=O)c1
Response: not met

Request: hey, is pKi for this one >= 7? N=C(N)N1CCCC(CNC(=O)[C@@H](Cc2c[nH]c3ccccc23)NS(=O)(=O)c2ccc3ccccc3c2)C1 (some centres undefined)
Response: met

Request: hey, is pKi for this one >= 7? Cc1cccc(OCCNc2ccncc2)c1
Response: not met

Request: hey, is pKi for this one >= 7? Cc1cc(N)nc(C)c1CNC(=O)Cn1c(C)ccc(NS(=O)(=O)Cc2ccccc2)c1=O
Response: met

====

Here we gather pKi data for Prothrombin (Homo sapiens) reported by several publications.
As a rule, pKi stands for the negative log10 of the concentration, concentration in M.

Illustrative cases are given below, each with its answer.
>>> value_observed("Cc1cnc(NCC(c2ccccc2)c2ccccc2)c(=O)n1CC(=O)NCc1ccc2c(N)noc2c1")
7.51
>>> value_observed("N=C(N)c1cccc(NC(=O)CC2CC(c3cccc(C(=N)N)c3)=NO2)c1 (stereo not drawn)")
4.95
>>> value_observed("CC(=N)N1CCC(Oc2ccc3cc(C(=O)NC(CC(=O)O)C(=O)O)n(Cc4ccc5ccc(C(=N)N)cc5c4)c3c2)CC1 (stereo not drawn)")
5.63
>>> value_observed("CCNc1nc(Cl)c2n(c1=O)[C@H](C(=O)NCc1ccc(C(=N)N)cc1)CC2(C)C")
6.59
>>> value_observed("O=S(=O)(c1ccccc1)c1cccc(OCCNc2ccncc2)c1")
6.50

Request: I have this compound here, C/C(=N\NC(=N)N)c1ccc(/C(C)=N/NC(=N)N)cc1 , and I need its recorded pKi.
Response: 3.10

Request: I have this compound here, COc1cccc(S(=O)(=O)Nc2cccn(CC(=O)NCc3ccc(C(=N)N)cc3F)c2=O)c1 , and I need its recorded pKi.
Response: 8.22

Request: I have this compound here, N=C(N)NS(=O)(=O)c1cc(Cl)cc(Cl)c1O , and I need its recorded pKi.
Response: 6.82

Request: I have this compound here, Nc1cc(CNC(=O)[C@@H]2CCCN2C(=O)[C@@H](Cc2ccc(Cl)c(Cl)c2)NS(=O)(=O)Cc2ccccc2)cs1 , and I need its recorded pKi.
Response: 6.89

Request: I have this compound here, N=C(N)c1ccc(CNC(=O)[C@@H]2CCCN2S(=O)(=O)Cc2ccccc2)cc1 , and I need its recorded pKi.
Response: 5.60

Request: I have this compound here, Cc1cnc(NCCc2ccc3c(c2)CCO3)c(=O)n1CC(=O)NCc1ccc2[nH]ncc2c1 , and I need its recorded pKi.
Response: 8.54

Request: I have this compound here, C[C@@H](O)[C@H](NS(=O)(=O)Cc1cccc(C(=O)O)c1)C(=O)N[C@@H](CCC(N)=O)C(=O)NCc1ccc(C(=N)N)cc1 , and I need its recorded pKi.
Response: 4.34

Request: I have this compound here, CCCN(Cc1cccnc1)C(=O)c1cc(C)cc(OCCCONC(=N)N)c1 , and I need its recorded pKi.
Response: 7.28

Request: I have this compound here, O=S(=O)(Nc1cccc(OCCNc2ccncc2)c1)c1ccccc1 , and I need its recorded pKi.
Response: 6.52

Request: I have this compound here, Nc1cc[n+](Cc2ccc(OC(c3ccccc3)c3ccccc3)cc2)cc1 , and I need its recorded pKi.
Response: 7.24

Request: I have this compound here, CC(NC(=O)CNC(=O)Nc1ccc(C(=N)N)cc1)c1ccc(C(=O)Nc2cccc(Oc3ccccc3)c2)cc1 (stereo not drawn) , and I need its recorded pKi.
Response: 4.92

Request: I have this compound here, N=C(N)NCCC[C@H](NS(=O)(=O)c1cccc(C(F)(F)F)c1)C(=O)N1CCN(CCCCCCCCCCCCN)CC1 , and I need its recorded pKi.
Response: 5.14

Request: I have this compound here, Cc1cc(C(=O)Nc2ccc(-c3ccccc3S(C)(=O)=O)cc2F)n(-c2cccc(C(=N)N)c2)n1 , and I need its recorded pKi.
Response: 6.64

Request: I have this compound here, CONC(=O)CC(CCc1ccc(C(=N)N)cc1)c1cccc(C(=N)N)c1 (stereo not drawn) , and I need its recorded pKi.
Response: 4.71
